# SUBJECT OF TEST: Acrosin (Homo sapiens)
# Sequence (P10323 20-42 limits assumed): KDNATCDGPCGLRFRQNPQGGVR
# Sequence (P10323 43-343 limits assumed): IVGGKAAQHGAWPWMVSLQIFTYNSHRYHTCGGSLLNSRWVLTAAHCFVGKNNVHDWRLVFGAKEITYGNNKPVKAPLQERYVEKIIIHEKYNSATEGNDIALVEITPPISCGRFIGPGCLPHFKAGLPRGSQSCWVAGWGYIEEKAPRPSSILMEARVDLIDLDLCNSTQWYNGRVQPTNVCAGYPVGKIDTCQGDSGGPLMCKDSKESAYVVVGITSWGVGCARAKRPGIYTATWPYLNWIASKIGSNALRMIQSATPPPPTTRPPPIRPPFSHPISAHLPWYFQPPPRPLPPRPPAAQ
Checkbox rule: IC50 lower than 10 µM = condition met; IC50 not lower than 10 µM = condition not met.

Lab note: confirm whether the reported IC50 for this compound is below 10 µM, equality not counting. compound: COc1cccc(NC(=O)c2cc(-c3ccc(NC(=N)N)cc3)[nH]n2)c1
condition met

Lab note: confirm whether the reported IC50 for this compound is below 10 µM, equality not counting. compound: N=C(N)Nc1ccc(-c2cc(C(=O)Nc3ccc4c(c3)OCCO4)n[nH]2)cc1
condition not met

Lab note: confirm whether the reported IC50 for this compound is below 10 µM, equality not counting. compound: N=C(N)Nc1ccc(-c2cc(C(=O)O)n[nH]2)cc1
condition not met

Lab note: confirm whether the reported IC50 for this compound is below 10 µM, equality not counting. compound: Cc1cccc(NC(=O)c2cc(-c3ccc(NC(=N)N)cc3)[nH]n2)c1C
condition met

Lab note: confirm whether the reported IC50 for this compound is below 10 µM, equality not counting. compound: COc1ccc(NC(=O)c2cc(-c3ccc(NC(=N)N)cc3)[nH]n2)cc1
condition not met

Lab note: confirm whether the reported IC50 for this compound is below 10 µM, equality not counting. compound: CCOC(=O)c1ccccc1NC(=O)c1cc(-c2ccc(NC(=N)N)cc2)[nH]n1
condition met

Lab note: confirm whether the reported IC50 for this compound is below 10 µM, equality not counting. compound: N=C(N)Nc1ccc(-c2cc(C(=O)Nc3cccc(Cl)c3)n[nH]2)cc1
condition not met

Lab note: confirm whether the reported IC50 for this compound is below 10 µM, equality not counting. compound: COc1ccc(NC(=O)c2cc(-c3ccc(NC(=N)N)cc3)[nH]n2)c(OC)c1
condition met

Lab note: confirm whether the reported IC50 for this compound is below 10 µM, equality not counting. compound: CCOC(=O)c1cc(-c2ccc(NC(=N)N)cc2)[nH]n1
condition not met

Lab note: confirm whether the reported IC50 for this compound is below 10 µM, equality not counting. compound: Cc1cccc(C)c1NC(=O)c1cc(-c2ccc(NC(=N)N)cc2)[nH]n1
condition met

Lab note: confirm whether the reported IC50 for this compound is below 10 µM, equality not counting. compound: N=C(N)Nc1ccc(-c2cc(C(=O)Nc3ccc(F)cc3)n[nH]2)cc1
condition not met

Lab note: confirm whether the reported IC50 for this compound is below 10 µM, equality not counting. compound: N=C(N)Nc1ccc(-c2cc(C(=O)Nc3ccc(O)cc3)n[nH]2)cc1
condition not met

Lab note: confirm whether the reported IC50 for this compound is below 10 µM, equality not counting. compound: CC(C)(C)c1ccc(NC(=O)c2cc(-c3ccc(NC(=N)N)cc3)[nH]n2)cc1
condition met

Lab note: confirm whether the reported IC50 for this compound is below 10 µM, equality not counting. compound: Cc1cccc(NC(=O)c2cc(-c3ccc(NC(=N)N)cc3)[nH]n2)c1
condition met

Lab note: confirm whether the reported IC50 for this compound is below 10 µM, equality not counting. compound: N=C(N)Nc1ccc(-c2cc(C(=O)Nc3ccc(C(F)(F)F)cc3)n[nH]2)cc1
condition not met

Lab note: confirm whether the reported IC50 for this compound is below 10 µM, equality not counting. compound: Cc1ccc(C)c(NC(=O)c2cc(-c3ccc(NC(=N)N)cc3)[nH]n2)c1
condition met

Lab note: confirm whether the reported IC50 for this compound is below 10 µM, equality not counting. compound: N=C(N)Nc1ccc(-c2cc(C(=O)Nc3ccc(Br)cc3)n[nH]2)cc1
condition not met
